- system-tested: UniProt O75164
- Sequence (O75164 1-1064): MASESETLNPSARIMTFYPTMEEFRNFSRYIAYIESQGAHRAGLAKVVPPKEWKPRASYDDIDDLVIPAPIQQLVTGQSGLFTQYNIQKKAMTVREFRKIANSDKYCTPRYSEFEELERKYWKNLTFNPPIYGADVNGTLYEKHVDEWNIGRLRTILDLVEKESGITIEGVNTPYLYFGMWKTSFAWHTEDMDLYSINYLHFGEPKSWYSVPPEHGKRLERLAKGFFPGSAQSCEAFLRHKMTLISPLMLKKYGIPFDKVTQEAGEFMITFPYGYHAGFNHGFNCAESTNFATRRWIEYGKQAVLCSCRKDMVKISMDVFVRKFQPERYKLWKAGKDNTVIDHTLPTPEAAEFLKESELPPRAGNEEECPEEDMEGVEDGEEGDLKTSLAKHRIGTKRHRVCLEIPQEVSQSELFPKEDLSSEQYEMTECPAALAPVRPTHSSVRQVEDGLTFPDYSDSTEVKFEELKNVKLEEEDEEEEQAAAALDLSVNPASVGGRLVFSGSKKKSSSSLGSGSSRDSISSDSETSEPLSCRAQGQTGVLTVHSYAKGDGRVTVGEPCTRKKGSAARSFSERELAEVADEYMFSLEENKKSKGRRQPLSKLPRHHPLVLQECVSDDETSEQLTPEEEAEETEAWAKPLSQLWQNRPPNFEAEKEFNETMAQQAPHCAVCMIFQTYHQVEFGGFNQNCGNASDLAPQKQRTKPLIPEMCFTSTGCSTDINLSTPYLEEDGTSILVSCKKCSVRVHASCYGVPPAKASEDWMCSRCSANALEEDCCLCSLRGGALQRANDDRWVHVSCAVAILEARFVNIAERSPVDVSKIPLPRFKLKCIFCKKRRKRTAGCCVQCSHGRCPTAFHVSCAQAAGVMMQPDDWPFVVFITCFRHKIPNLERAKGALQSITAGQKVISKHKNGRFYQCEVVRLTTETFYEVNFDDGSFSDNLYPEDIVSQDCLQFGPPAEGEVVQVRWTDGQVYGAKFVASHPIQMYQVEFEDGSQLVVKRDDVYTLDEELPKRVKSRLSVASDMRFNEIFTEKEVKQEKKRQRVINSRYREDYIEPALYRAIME
Criterion: IC50 strictly under 400 nM. Met: Y. Not met: N.

Example entries begin here.
O=C(O)c1ccncc1Nc1nn(CCN2CCC(F)(F)CC2)c2ccc(F)cc12 : N
CCN(CCN(C)C)C(=O)CNCc1cc(C(=O)O)ccn1 : Y
Cc1cc(Cl)ccc1COc1ccnn1-c1cc(C(=O)O)ccn1 : N

Here is another molecule to look at.
# input # TODO verify IC50 < 400 nM strictly for this molecule: Nc1c(C(=O)O)ccnc1C(=O)O [Example 7, reference compound]
# output N
